Reported Top (MFI) values follow for various binders
- MEASURED_TARGET: T1, human LIV-1 (human, UniProt Q13433 29-755)
- T1 construct: whole, on cells; also called H-LIV1
- T1 sequence (looked up): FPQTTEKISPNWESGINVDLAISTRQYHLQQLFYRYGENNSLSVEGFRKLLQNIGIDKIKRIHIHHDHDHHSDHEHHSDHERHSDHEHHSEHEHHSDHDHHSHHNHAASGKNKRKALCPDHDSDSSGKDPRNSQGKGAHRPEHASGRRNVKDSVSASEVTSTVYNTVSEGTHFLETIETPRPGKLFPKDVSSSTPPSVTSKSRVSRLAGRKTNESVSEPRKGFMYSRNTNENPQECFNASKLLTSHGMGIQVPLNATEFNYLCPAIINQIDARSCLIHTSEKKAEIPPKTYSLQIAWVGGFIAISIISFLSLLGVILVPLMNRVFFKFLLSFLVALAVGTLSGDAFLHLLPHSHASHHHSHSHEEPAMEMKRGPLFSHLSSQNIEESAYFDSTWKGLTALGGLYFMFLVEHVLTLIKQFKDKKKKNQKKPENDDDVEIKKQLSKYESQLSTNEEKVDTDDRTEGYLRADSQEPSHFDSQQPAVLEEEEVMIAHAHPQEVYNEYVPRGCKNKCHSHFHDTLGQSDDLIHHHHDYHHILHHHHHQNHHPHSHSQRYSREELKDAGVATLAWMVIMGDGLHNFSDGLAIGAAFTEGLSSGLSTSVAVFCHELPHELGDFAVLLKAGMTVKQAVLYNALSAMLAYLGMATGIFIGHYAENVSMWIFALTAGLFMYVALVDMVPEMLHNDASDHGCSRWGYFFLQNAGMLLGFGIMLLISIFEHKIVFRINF
- ASSAY_PROTOCOL: FACS, HEK293/H_LIV-1 cells
VALUE_KIND: Top (MFI)

[
  {
    "BINDER": "5D6B10.Z13 (antibody, V domains shown) VH: QVQLQQSGPGLVKPSGTLSLTCTVSGFSLTTYGIHWVRQSPGKGLEWLGVIWTGGTTDYNAAFISRLTISKDKSKNQVFFKMSSLTAADTAVYYCARGPSSYWGQGTLVTVSS VL: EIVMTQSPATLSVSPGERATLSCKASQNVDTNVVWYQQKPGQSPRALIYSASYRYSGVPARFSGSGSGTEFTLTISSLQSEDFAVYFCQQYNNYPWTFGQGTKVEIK",
    "VALUE_KIND": "Top (MFI)",
    "MEASURED_VALUE": "64300 MFI"
  },
  {
    "BINDER": "124H4D11.p2.z3 (antibody, V domains shown) VH: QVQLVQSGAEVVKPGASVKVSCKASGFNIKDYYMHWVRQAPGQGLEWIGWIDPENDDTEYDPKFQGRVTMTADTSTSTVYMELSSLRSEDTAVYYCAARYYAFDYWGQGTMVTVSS VL: DVLMTQSPSSLSVSVGDRATISCRSSQSIVHSNANTYLEWYLQKPGKSPKLLIYKVSNRFSGVPDRFSGSGSGTEFTLTISSVQPEDFGVYYCFQGSQVPPTFGGGTRLEIK",
    "VALUE_KIND": "Top (MFI)",
    "MEASURED_VALUE": "19400 MFI"
  },
  {
    "BINDER": "5D6B10.Z4 (antibody, V domains shown) VH: QVQLVESGGGVVQPGRSLRLSCTVSGFSLTTYGIHWVRQSPGKGLEWLGVIWTGGTTDYNAAFISRLTISKDNSKSTLYFQMNSLRAEDTAVYYCARGPSSYWGQGTLVTVSS VL: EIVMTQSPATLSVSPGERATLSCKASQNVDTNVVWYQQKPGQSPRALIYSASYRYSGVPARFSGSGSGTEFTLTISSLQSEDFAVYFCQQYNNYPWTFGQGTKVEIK",
    "VALUE_KIND": "Top (MFI)",
    "MEASURED_VALUE": "53000 MFI"
  }
]

Origin of measurements: patent US20240325555A1
